Reference source: the supplement of paper PMC11061612

Entries annotated with measured combination Emax
Tested on: NCI-H1568 (Lung Adenocarcinoma)
protocol summary: combination Emax (second highest fraction inhibited in the dose matrix, 72 h); higher = more inhibition; extreme values may be limits of the assay
measured metric: combination Emax

[[record]]
molecule = "C=CCn1c(=O)c2cnc(Nc3ccc(N4CCN(C)CC4)cc3)nc2n1-c1cccc(C(C)(C)O)n1 [AZD1775] + O=C(c1cc(Cc2n[nH]c(=O)c3ccccc23)ccc1F)N1CCN(C(=O)C2CC2)CC1 [Olaparib] (first compound max 1 µM, partner max 10 µM)"
measured_metric = "combination Emax"
measurement = 0.422

[[record]]
molecule = "Cc1c2c(nn1C)CSCc1cc(n(C)n1)CSc1cc(c3ccccc3c1)OCCCc1c(C(=O)O)n(C)c3c-2c(Cl)ccc13 [AZD5991] + CC1(C)CCC(CN2CCN(c3ccc(C(=O)NS(=O)(=O)c4ccc(NCC5CCOCC5)c([N+](=O)[O-])c4)c(Oc4cnc5[nH]ccc5c4)c3)CC2)=C(c2ccc(Cl)cc2)C1 [Venetoclax] (first compound max 1 µM, 7x7, partner max 1 µM)"
measured_metric = "combination Emax"
measurement = 0.248

[[record]]
molecule = "CC1(C)CCC(CN2CCN(c3ccc(C(=O)NS(=O)(=O)c4ccc(NCC5CCOCC5)c([N+](=O)[O-])c4)c(Oc4cnc5[nH]ccc5c4)c3)CC2)=C(c2ccc(Cl)cc2)C1 [Venetoclax] + C1CN(CCC1(C(=O)N[C@@H](CCO)C2=CC=C(C=C2)Cl)N)C3=NC=NC4=C3C=CN4 [Capivasertib] (first compound max 1 µM, 7x7, partner max 3 µM)"
measured_metric = "combination Emax"
measurement = 0.133

